- Experimental system: MAFB (Homo sapiens, UniProt Q9Y5Q3)
- Protocol notes: Direct-binding FRET assay
- Parameters: made in house
- Particulars: Kd, 37°C; N-terminal rhodamine design; mean or single
Where no end group is shown, it is not given here.

>  <Polymer sequence>
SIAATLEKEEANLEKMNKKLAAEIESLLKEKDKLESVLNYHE [JUN-d1]

>  <Kd>
> 1000 nM

$$$$

----------
- Experimental system: FOS (Homo sapiens, UniProt P01100)
- Sequence (P01100 137-200 limits assumed): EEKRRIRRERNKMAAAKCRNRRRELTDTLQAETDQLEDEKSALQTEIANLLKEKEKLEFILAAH
- Protocol notes: Direct-binding FRET assay
- Set-up: made in house
- Particulars: 23°C; N-terminal rhodamine design; mean or single
pKd: −log10 of the molar value. Where no end group is shown, it is not given here.

>  <Polymer sequence>
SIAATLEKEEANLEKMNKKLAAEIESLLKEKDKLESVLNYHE [JUN-d1]

>  <pKd>
< 6.00

$$$$

----------
- Experimental system: MAFB (Homo sapiens)
- Protocol notes: Direct-binding FRET assay
- Design: made in house
- Particulars: 4°C; C-terminal rhodamine design; mean or single; read-out: Kd
pKd: −log10 of the molar value. Where no end group is shown, it is not given here.
Each entry below carries its recorded pKd.
Readout type: pKd

>  <Polymer sequence>
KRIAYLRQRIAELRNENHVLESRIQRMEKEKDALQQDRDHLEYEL [ATF5-d1]

>  <Readout type>
pKd

>  <Test result>
6.14

$$$$
>  <Polymer sequence>
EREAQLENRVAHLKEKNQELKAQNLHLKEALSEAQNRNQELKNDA [XBP1-d1]

>  <Readout type>
pKd

>  <Test result>
< 5.30

$$$$
>  <Polymer sequence>
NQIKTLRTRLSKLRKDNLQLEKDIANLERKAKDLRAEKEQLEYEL [ATF4-d1]

>  <Readout type>
pKd

>  <Test result>
< 5.30

$$$$

----------
- Experimental system: XBP1 (Homo sapiens)
- Construct: made in house
- Sequence (P17861 70-133 limits assumed): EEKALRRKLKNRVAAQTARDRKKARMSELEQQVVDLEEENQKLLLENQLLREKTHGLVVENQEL
- Protocol notes: Direct-binding FRET assay
- Particulars: 4°C; C-terminal rhodamine design; mean or single; read-out: Kd
pKd: −log10 of the molar value. Where no end group is shown, it is not given here.
Readout type: pKd

>  <Polymer sequence>
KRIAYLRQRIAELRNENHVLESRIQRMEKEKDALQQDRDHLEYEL [ATF5-d1]

>  <Readout type>
pKd

>  <Test result>
< 5.30

$$$$

----------
- Experimental system: ATF4 (Homo sapiens)
- Construct: made in house
- Sequence (P18848 278-341 limits assumed): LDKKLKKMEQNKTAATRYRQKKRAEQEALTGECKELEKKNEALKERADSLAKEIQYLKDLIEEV
- Protocol notes: Direct-binding FRET assay
- Particulars: Kd, 37°C; C-terminal fluorescein design as donor, TAMRA target titrated
pKd: −log10 of the molar value. Where no end group is shown, it is not given here.
Readout type: pKd

>  <Polymer sequence>
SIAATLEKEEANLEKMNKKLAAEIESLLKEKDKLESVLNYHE [JUN-d1]

>  <Readout type>
pKd

>  <Test result>
6.36

$$$$

----------
- Experimental system: ATF5 (Homo sapiens)
- Construct: made in house
- Sequence (Q9Y2D1 208-271 limits assumed): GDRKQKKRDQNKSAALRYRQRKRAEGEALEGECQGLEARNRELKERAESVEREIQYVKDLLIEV
- Protocol notes: Direct-binding FRET assay
- Particulars: 37°C; C-terminal rhodamine design; repeat 1; read-out: Kd
pKd: −log10 of the molar value. Where no end group is shown, it is not given here.

>  <Polymer sequence>
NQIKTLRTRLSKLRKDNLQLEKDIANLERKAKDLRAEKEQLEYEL [ATF4-d1]

>  <pKd>
< 5.30

$$$$
